TARGET_OR_SYSTEM: TGF-beta receptor type-1 (Homo sapiens, UniProt P36897)
Sequence (P36897 whole entry, the tested form may be a part): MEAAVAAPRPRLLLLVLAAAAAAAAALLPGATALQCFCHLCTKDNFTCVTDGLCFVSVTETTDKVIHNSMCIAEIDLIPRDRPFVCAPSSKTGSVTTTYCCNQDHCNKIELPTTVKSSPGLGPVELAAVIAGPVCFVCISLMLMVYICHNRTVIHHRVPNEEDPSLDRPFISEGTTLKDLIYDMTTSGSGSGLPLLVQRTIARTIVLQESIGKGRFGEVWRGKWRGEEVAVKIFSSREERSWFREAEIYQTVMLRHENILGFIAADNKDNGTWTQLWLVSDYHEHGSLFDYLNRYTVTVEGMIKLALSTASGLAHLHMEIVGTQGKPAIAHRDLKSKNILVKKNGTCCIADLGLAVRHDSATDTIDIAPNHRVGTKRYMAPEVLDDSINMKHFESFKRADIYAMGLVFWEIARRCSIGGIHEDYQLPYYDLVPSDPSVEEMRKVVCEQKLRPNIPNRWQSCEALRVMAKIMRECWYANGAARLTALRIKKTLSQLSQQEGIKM
ASSAY_SUMMARY: Inhibition of human recombinant GST-fused ALK5 expressed in Sf9 cells using casein as a substrate by radioisotopic protein kinase assay
PROPERTY_NAME: IC50 (nM)

The examples below pair each entry with its known result.
> print(dat)
                         structure.notation  value
1  COc1cccc(CNc2nc(-c3cccc(C)n3)c(-c3ccc4ncnn4c3)s2)c1OC   43.5
2  Cc1cc(C)cc(CNc2nc(-c3cccc(C)n3)c(-c3ccc4ncnn4c3)s2)c1     22

A = Cc1cccc(-c2nc(NCc3cccc(C(N)=O)c3)sc2-c2ccc3ncnn3c2)n1
B = Cc1cccc(-c2nc(NCc3cccc(F)c3F)sc2-c2ccc3ncnn3c2)n1
C = Cc1cccc(-c2nc(NCc3ccc(F)cc3)sc2-c2ccc3ncnn3c2)n1
D = COc1ccc(CNc2nc(-c3cccc(C)n3)c(-c3ccc4ncnn4c3)s2)cc1OC
Incoming: Order field: IC50 | Direction: descending (largest first) Respond with an ordered listing of the labels, as requested.
Outgoing: D, B, A, C
(D: 47.7 nM, B: 29.4 nM, A: 13.6 nM, C: 8.61 nM)

---

TARGET_OR_SYSTEM: Mitogen-activated protein kinase 14 (Homo sapiens)
Sequence (Q16539 whole entry): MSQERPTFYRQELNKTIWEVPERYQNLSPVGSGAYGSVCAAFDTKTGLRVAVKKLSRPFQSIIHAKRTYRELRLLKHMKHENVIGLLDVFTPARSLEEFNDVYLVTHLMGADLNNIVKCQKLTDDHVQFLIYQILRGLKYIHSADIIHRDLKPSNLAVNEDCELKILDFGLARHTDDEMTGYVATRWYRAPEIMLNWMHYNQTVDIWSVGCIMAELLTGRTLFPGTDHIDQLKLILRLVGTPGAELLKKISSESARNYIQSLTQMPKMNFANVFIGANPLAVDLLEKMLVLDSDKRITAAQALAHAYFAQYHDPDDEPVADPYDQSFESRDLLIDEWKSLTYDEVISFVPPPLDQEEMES
ASSAY_SUMMARY: Inhibition of human recombinant p38alpha expressed in Escherichia coli using ATF2 as a substrate by radioisotopic protein kinase assay
PROPERTY_NAME: IC50

The examples below pair each entry with its known result.
> print(dat)
                         structure.notation    value
1  COc1cccc(CNc2nc(-c3cccc(C)n3)c(-c3ccc4ncnn4c3)s2)c1OC  > 10 µM
2  Cc1cccc(-c2nc(NCc3cc(Cl)cc(Cl)c3)sc2-c2ccc3ncnn3c2)n1  > 10 µM
3  Cc1cccc(CNc2nc(-c3cccc(C)n3)c(-c3ccc4ncnn4c3)s2)c1  5.37 µM
4  Cc1cccc(-c2nc(NCc3ccccc3F)sc2-c2ccc3ncnn3c2)n1  > 10 µM
5  Cc1cccc(-c2nc(NCc3ccccc3C)sc2-c2ccc3ncnn3c2)n1  > 10 µM

Incoming: Provide only the value of recorded IC50 for COc1cc(CNc2nc(-c3cccc(C)n3)c(-c3ccc4ncnn4c3)s2)cc(OC)c1
Outgoing: 7.99 µM

Incoming: Provide only the value of recorded IC50 for Cc1cccc(-c2nc(NCc3ccc(F)cc3)sc2-c2ccc3ncnn3c2)n1
Outgoing: 9.2 µM

Incoming: Provide only the value of recorded IC50 for Cc1cccc(-c2nc(NCc3ccccc3)sc2-c2ccc3ncnn3c2)n1
Outgoing: 5.53 µM

Incoming: Provide only the value of recorded IC50 for Cc1cccc(-c2nc(NCc3ccc(Cl)c(Cl)c3)sc2-c2ccc3ncnn3c2)n1
Outgoing: > 10 µM

Incoming: Provide only the value of recorded IC50 for Cc1cccc(-c2sc(NCc3cccc(C#N)c3)nc2-c2ccc3ncnn3c2)n1
Outgoing: > 10 µM

Incoming: Provide only the value of recorded IC50 for Cc1cccc(-c2sc(NCc3cccc(C(N)=O)c3)nc2-c2ccc3ncnn3c2)n1
Outgoing: > 10 µM

Incoming: Provide only the value of recorded IC50 for Cc1cccc(-c2nc(NCc3ccccc3OC(F)(F)F)sc2-c2ccc3ncnn3c2)n1
Outgoing: > 10 µM

Incoming: Provide only the value of recorded IC50 for Cc1cccc(-c2nc(NCc3cccc(Cl)c3Cl)sc2-c2ccc3ncnn3c2)n1
Outgoing: > 10 µM

Incoming: Provide only the value of recorded IC50 for Cc1cccc(-c2nc(NCc3cccc(F)c3)sc2-c2ccc3ncnn3c2)n1
Outgoing: 3.53 µM

---

Species: Homo sapiens
ASSAY_SUMMARY: Selectivity index, ratio of IC50 for human recombinant p38alpha to IC50 for human recombinant ALK5
PROPERTY_NAME: Ratio IC50

a = Cc1cccc(-c2sc(NCc3ccccc3)nc2-c2ccc3ncnn3c2)n1
b = Cc1cccc(-c2nc(NCc3ccc(F)cc3)sc2-c2ccc3ncnn3c2)n1
Incoming: I would appreciate it if you could say which entry, a or b , has the lower Ratio IC50 value. Your answer should be the label attached to the chosen record.
Outgoing: a

---

TARGET_OR_SYSTEM: Mitogen-activated protein kinase 14 (Homo sapiens)
ASSAY_SUMMARY: Inhibition of human recombinant p38alpha expressed in Escherichia coli using ATF2 as a substrate by radioisotopic protein kinase assay
PROPERTY_NAME: IC50 (µM)

The examples below pair each entry with its known result.
> print(dat)
                         structure.notation                          target.or.system  property.name  unit.tag  value
1  Cc1cccc(-c2nc(NCc3ccc(F)c(F)c3)sc2-c2ccc3ncnn3c2)n1  Mitogen-activated protein kinase 14 (Homo sapiens)           IC50        µM   3.58
2  Cc1cccc(-c2nc(NCc3cc(F)cc(F)c3)sc2-c2ccc3ncnn3c2)n1  Mitogen-activated protein kinase 14 (Homo sapiens)           IC50        µM   3.82
3  Cc1cccc(-c2nc(NCc3cccc(F)c3F)sc2-c2ccc3ncnn3c2)n1  Mitogen-activated protein kinase 14 (Homo sapiens)           IC50        µM    7.2
4  Cc1cccc(-c2nc(NCc3cccc(C(N)=O)c3)sc2-c2ccc3ncnn3c2)n1  Mitogen-activated protein kinase 14 (Homo sapiens)           IC50        µM   6.19
5  Cc1cccc(-c2nc(NCc3cccc(Cl)c3)sc2-c2ccc3ncnn3c2)n1  Mitogen-activated protein kinase 14 (Homo sapiens)           IC50        µM   3.28
6  Cc1cccc(-c2nc(NCc3cccc(OC(F)(F)F)c3)sc2-c2ccc3ncnn3c2)n1  Mitogen-activated protein kinase 14 (Homo sapiens)           IC50        µM   7.39

I = Cc1cccc(-c2sc(NCc3ccccc3)nc2-c2ccc3ncnn3c2)n1
II = Cc1cccc(-c2nc(NCc3cccc(C#N)c3)sc2-c2ccc3ncnn3c2)n1
III = Cc1cccc(-c2nc(NCc3ccccc3Cl)sc2-c2ccc3ncnn3c2)n1
Incoming: Order field: IC50 | Direction: descending (largest first) Respond with an ordered listing of the labels, as requested.
Outgoing: I, III, II
(I: 8.82 µM, III: 5.86 µM, II: 3.78 µM)

---

TARGET_OR_SYSTEM: TGF-beta receptor type-1 (Homo sapiens, UniProt P36897)
ASSAY_SUMMARY: Inhibition of human recombinant GST-fused ALK5 expressed in Sf9 cells using casein as a substrate by radioisotopic protein kinase assay
pIC50: −log10 of the molar value.
PROPERTY_NAME: pIC50

The examples below pair each entry with its known result.
> print(dat)
                         structure.notation                          target.or.system  value
1  Cc1cccc(CNc2nc(-c3cccc(C)n3)c(-c3ccc4ncnn4c3)s2)c1  TGF-beta receptor type-1 (Homo sapiens, UniProt P36897)   7.95
2  Cc1cccc(-c2sc(NCc3ccccc3)nc2-c2ccc3ncnn3c2)n1  TGF-beta receptor type-1 (Homo sapiens, UniProt P36897)   7.61
3  Cc1cccc(-c2nc(NCc3cccc(Cl)c3)sc2-c2ccc3ncnn3c2)n1  TGF-beta receptor type-1 (Homo sapiens, UniProt P36897)   7.99

1 = Cc1cccc(-c2nc(NCc3cc(F)cc(F)c3)sc2-c2ccc3ncnn3c2)n1
2 = Cc1cccc(-c2nc(NCc3cccc(C)c3C)sc2-c2ccc3ncnn3c2)n1
Incoming: Consider 1 and 2 . Which of these has its pIC50 at a higher number? Your answer should be the label attached to the chosen record.
Outgoing: 1

---

Species on record: Homo sapiens
ASSAY_SUMMARY: Selectivity index, ratio of IC50 for human recombinant p38alpha to IC50 for human recombinant ALK5
PROPERTY_NAME: Ratio IC50

P = Cc1cccc(-c2[nH]c(Cc3cccc(C(N)=O)c3)nc2-c2ccc3nccnc3c2)n1
Q = Cc1cccc(-c2nc(NCc3cccc(Cl)c3)sc2-c2ccc3ncnn3c2)n1
R = Cc1cccc(-c2nc(NCc3cccc(F)c3)sc2-c2ccc3ncnn3c2)n1
Incoming: Sort the listed compounds above so the one with the largest Ratio IC50 comes first and the smallest comes last. Respond with an ordered listing of the labels, as requested.
Outgoing: R, Q, P

---

Species: Homo sapiens
ASSAY_SUMMARY: Selectivity index, ratio of IC50 for human recombinant p38alpha to IC50 for human recombinant ALK5
PROPERTY_NAME: Ratio IC50

> print(dat)
                         structure.notation  property.name  value
1  Cc1cccc(-c2nc(NCc3ccccc3)sc2-c2ccc3ncnn3c2)n1     Ratio IC50    489
2  Cc1cccc(CNc2nc(-c3cccc(C)n3)c(-c3ccc4ncnn4c3)s2)c1     Ratio IC50    479
3  Cc1cccc(-c2nc(NCc3cccc(OC(F)(F)F)c3)sc2-c2ccc3ncnn3c2)n1     Ratio IC50    383
4  COc1cc(CNc2nc(-c3cccc(C)n3)c(-c3ccc4ncnn4c3)s2)cc(OC)c1     Ratio IC50    484

P = Cc1cccc(-c2nc(NCc3ccc(F)c(F)c3)sc2-c2ccc3ncnn3c2)n1
Q = Cc1cccc(-c2nc(NCc3cccc(F)c3F)sc2-c2ccc3ncnn3c2)n1
Incoming: I would appreciate it if you could say which entry, P or Q , has the lower Ratio IC50 value. Your answer should be the label attached to the chosen record.
Outgoing: Q
(Q: 245, P: 482)
